# Tested on: OVCAR-4
# assayProcedure: NCI tumour cell line growth inhibition, 48 h
The source made the active and inactive calls. Rule as the data show it: active = GI50 up to about 1.1 µM and inactive = higher.
Documented GI50 across a set of compounds

Recorded results for 2 compounds are shown here.
- O=C(/C=C/c1ccc(Cl)c(Cl)c1)c1ccc(F)cc1: 19.2 µM (inactive)
- O=[N+]([O-])c1ccc(NN=C2c3ccccc3Cc3ccccc32)c([N+](=O)[O-])c1: 13.3 µM (inactive)

// next item, GI50 requested
The compound listed as CC1=C(C#N)S(=O)(=O)c2c(oc(C)c2C)N1 has a reported GI50 of > 100 µM (inactive)
